FYI, the data here is from ChEMBL document CHEMBL1140266.

# pEC50 annotations
system under test: Peroxisome proliferator-activated receptor alpha (Homo sapiens, UniProt Q07869)
Sequence (Q07869 whole entry): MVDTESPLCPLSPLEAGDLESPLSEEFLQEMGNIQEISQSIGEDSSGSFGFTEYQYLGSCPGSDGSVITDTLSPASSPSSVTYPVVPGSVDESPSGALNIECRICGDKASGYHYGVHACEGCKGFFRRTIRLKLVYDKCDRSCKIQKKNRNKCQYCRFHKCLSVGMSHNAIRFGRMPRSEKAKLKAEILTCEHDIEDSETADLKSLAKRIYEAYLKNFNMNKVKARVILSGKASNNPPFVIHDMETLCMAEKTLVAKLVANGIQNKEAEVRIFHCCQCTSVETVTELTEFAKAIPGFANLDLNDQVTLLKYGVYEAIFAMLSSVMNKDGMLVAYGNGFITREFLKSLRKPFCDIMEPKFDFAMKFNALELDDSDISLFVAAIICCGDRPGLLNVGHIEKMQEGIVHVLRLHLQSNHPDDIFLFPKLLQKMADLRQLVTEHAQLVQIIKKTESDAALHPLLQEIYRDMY
Assay type: functional, cell-based, COS-1
Description: Agonist activity against human PPARalpha in COS-1 cell Gal4 assay
pEC50: −log10 of the molar value.
assay readout: pEC50

# molecule, system under test, observed result
measured = [
    ("C[C@]1(C(=O)O)CCc2ccc(OCCCOc3ccc(OCC4CC4)cc3Cl)cc2O1", "Peroxisome proliferator-activated receptor alpha (Homo sapiens, UniProt Q07869)", 6.62),
    ("CC[C@]1(C(=O)O)CCc2ccc(OCCCOc3ccc(CC(C)C)cc3Cl)cc2O1", "Peroxisome proliferator-activated receptor alpha (Homo sapiens, UniProt Q07869)", 8.15),
    ("CC[C@]1(C(=O)O)CCc2ccc(OCCCOc3ccc(C4CCOCC4)cc3Cl)cc2O1", "Peroxisome proliferator-activated receptor alpha (Homo sapiens, UniProt Q07869)", 7.66),
    ("CC[C@]1(C(=O)O)CCc2ccc(OCCCOc3ccc(C4CCC(C)(C)CC4)cc3Cl)cc2O1", "Peroxisome proliferator-activated receptor alpha (Homo sapiens, UniProt Q07869)", 6.15),
    ("CC[C@]1(C(=O)O)CCc2ccc(OCCCOc3ccc(Cl)cc3Cl)cc2O1", "Peroxisome proliferator-activated receptor alpha (Homo sapiens, UniProt Q07869)", 6.89),
    ("CC(C)Cc1ccc(OCCCOc2ccc3c(c2)O[C@@](C)(C(=O)O)CC3)c(Cl)c1", "Peroxisome proliferator-activated receptor alpha (Homo sapiens, UniProt Q07869)", 8.22),
    ("C[C@]1(C(=O)O)CCc2ccc(OCCCOc3ccc(C4CCCC4)cc3Cl)cc2O1", "Peroxisome proliferator-activated receptor alpha (Homo sapiens, UniProt Q07869)", 8.05),
    ("C[C@]1(C(=O)O)CCc2ccc(OCCCOc3ccc(OC(F)(F)F)cc3Cl)cc2O1", "Peroxisome proliferator-activated receptor alpha (Homo sapiens, UniProt Q07869)", 7.70),
    ("CC(C)Oc1ccc(OCCCOc2ccc3c(c2)O[C@@](C)(C(=O)O)CC3)c(Cl)c1", "Peroxisome proliferator-activated receptor alpha (Homo sapiens, UniProt Q07869)", 7.40),
]
